# testedSystem: recombinant human MMP-2 (Homo sapiens, UniProt P08253)
# Sequence (P08253 110-660): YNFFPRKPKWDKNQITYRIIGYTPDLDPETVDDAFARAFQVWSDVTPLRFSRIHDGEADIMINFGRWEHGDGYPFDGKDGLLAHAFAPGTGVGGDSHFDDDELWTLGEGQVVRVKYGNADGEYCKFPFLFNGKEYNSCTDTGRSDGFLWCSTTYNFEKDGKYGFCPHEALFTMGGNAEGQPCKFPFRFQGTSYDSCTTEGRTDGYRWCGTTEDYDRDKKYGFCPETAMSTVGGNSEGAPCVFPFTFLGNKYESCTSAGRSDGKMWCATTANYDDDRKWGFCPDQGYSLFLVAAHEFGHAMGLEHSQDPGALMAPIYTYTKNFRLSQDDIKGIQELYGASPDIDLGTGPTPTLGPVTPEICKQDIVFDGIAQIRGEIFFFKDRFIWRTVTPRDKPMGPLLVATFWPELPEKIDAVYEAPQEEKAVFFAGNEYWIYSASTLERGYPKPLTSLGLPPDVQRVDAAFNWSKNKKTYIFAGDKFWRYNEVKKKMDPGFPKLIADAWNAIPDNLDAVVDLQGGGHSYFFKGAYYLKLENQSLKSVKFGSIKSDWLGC
# protocolDetails: biochemical
# conditionContext: Inhibition Table A; read-out: MMP-2 IC50
assayReadout: pIC50
Expect pIC50 as a plain number equal to -log10 of the molar concentration.

Some molecules with recorded pIC50:
| testSmiles | pIC50 |
| --- | --- |
| O=C(NO)C1(S(=O)(=O)c2ccc(Sc3ccc(Cl)cc3)cc2)CCOCC1 | 8.59 |
| O=C(NO)C1(S(=O)(=O)c2ccc(Oc3ccccc3)cc2)CCNCC1 | 9.64 |

**Query** // Input: C#CCN1CCC(C(=O)NO)(S(=O)(=O)c2ccc(Sc3ccccc3)cc2)CC1 . Output its pIC50 only.
**Result** 9.70

**Query** // Input: CCCCOC1CCN(c2ccc(S(=O)(=O)C3(C(=O)NO)CCOCC3)cc2)CC1 . Output its pIC50 only.
**Result** 7.00

**Query** // Input: O=C(NO)C1(S(=O)(=O)c2ccc(Sc3ccc(F)cc3)cc2)CCNCC1 . Output its pIC50 only.
**Result** 9.05

**Query** // Input: O=C(NO)C1(S(=O)(=O)c2ccc(Oc3ccc(-n4cncn4)cc3)cc2)CCOCC1 . Output its pIC50 only.
**Result** 9.70

**Query** // Input: O=C(CS(=O)(=O)c1ccc(Oc2ccccc2)cc1)NO . Output its pIC50 only.
**Result** 8.59
